B1: TPR 5TU (parent)
chain: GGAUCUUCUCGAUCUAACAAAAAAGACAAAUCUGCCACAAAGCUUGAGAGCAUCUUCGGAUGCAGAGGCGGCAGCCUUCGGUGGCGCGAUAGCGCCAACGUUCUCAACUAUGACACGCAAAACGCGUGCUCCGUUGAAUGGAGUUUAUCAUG

Variants of: B1
procedure.text: polymerase ribozyme fitness, log enrichment relative to wild type (log ratio); higher = more active; in vitro selection for triplet polymerase activity
Fewer inactive variants are shown than the library holds.
attribute.measured: polymerase ribozyme fitness (log ratio)
One number for each entry.

Example cases with answers are listed next.
{"mutation.key": "U82C A89U", "attribute.measured": "polymerase ribozyme fitness (log ratio)", "number": -0.15}
{"mutation.key": "G34U G50U A91C", "attribute.measured": "polymerase ribozyme fitness (log ratio)", "number": -4.01}

Could I get polymerase ribozyme fitness (log ratio) for every one of these entries?
1. U33A C72U A73G G124U
2. A60G C114U
3. C57U G68U
4. G59C A119U C149U

Given back:
[-3.23, -1.83, -3.89, -0.775]

Could I get polymerase ribozyme fitness (log ratio) for every one of these entries?
1. A37C A52U C132U
2. G67U C118U
3. C51U G58C G62U C69U C96G
4. U15G G59U U135G
5. C96A A97G

Given back:
1. -4.13
2. -2.87
3. -3.67
4. -3.96
5. -0.635
